Target Or Test System: T1, human EphB3 (Homo sapiens, UniProt P54753)
T1 construct: a protein of the extracellular region of each human Eph receptor fused with the SEAP protein and the His tag; made in house; host or cells: Expi293F cells
T1 sequence (P54753 34-559 limits assumed): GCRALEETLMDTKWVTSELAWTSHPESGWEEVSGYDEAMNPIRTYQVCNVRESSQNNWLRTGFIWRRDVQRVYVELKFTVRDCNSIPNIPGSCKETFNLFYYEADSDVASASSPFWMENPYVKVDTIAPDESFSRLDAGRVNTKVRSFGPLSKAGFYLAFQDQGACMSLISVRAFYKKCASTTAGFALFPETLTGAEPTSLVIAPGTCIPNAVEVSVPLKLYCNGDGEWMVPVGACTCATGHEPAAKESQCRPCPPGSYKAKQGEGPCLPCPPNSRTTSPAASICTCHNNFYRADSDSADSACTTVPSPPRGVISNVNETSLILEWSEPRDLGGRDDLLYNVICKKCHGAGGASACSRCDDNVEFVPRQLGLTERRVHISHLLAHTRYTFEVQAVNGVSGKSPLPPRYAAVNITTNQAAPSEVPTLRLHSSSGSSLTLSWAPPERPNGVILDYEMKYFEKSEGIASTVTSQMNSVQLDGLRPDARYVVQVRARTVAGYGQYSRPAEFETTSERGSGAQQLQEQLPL
Procedure Summary: Selectivity ELISA of humanized antibodies for human Eph receptor
Type: binding
Study Conditions: coated protein 1 nM
Observation Type: hEphB3-SEAP-: absorbance at 450 nm, percentage with respect to hEphA4-SEAP-His as 100% (%)
Entry rule: numbers only, all in %.

Consider the following illustrative entries.
molecule="76 (antibody, V domains shown, synthetic humanized antibody heavy chain variable region sequence; synthetic humanized antibody light chain variable region sequence) VH: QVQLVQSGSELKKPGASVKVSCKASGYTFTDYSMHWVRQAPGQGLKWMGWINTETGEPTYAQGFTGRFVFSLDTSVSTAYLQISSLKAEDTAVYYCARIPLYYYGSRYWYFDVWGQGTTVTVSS VL: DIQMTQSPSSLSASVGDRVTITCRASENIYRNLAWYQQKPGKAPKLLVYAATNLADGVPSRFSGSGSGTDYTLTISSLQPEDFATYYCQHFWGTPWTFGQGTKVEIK" unit_tag=% obs_value=5.0
molecule="141 (antibody, V domains shown, synthetic humanized antibody heavy chain variable region sequence; synthetic humanized antibody light chain variable region sequence) VH: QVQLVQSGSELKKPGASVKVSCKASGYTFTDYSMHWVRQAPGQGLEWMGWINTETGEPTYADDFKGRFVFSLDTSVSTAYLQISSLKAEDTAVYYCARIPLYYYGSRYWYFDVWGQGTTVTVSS VL: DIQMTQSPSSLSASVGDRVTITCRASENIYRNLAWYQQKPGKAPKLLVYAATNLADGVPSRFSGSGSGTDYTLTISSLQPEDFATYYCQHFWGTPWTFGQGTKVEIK" unit_tag=% obs_value=5.2
molecule="144 (antibody, V domains shown, synthetic humanized antibody heavy chain variable region sequence; synthetic humanized antibody light chain variable region sequence) VH: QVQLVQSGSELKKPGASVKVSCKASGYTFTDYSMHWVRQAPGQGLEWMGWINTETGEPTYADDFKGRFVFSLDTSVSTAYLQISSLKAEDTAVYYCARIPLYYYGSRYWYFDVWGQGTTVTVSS VL: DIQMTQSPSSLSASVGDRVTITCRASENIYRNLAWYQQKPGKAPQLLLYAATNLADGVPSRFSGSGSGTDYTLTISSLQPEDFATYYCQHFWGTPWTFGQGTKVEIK" unit_tag=% obs_value=5.8

If you can, please state the reported hEphB3-SEAP-: absorbance at 450 nm, percentage with respect to hEphA4-SEAP-His as 100% value of 89 (antibody, V domains shown, constant regions without entry; synthetic humanized antibody light chain variable region sequence; synthetic humanized antibody heavy chain variable region sequence) VL: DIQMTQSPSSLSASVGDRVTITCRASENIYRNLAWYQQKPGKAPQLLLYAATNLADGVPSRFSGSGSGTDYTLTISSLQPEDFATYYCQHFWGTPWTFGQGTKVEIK VH: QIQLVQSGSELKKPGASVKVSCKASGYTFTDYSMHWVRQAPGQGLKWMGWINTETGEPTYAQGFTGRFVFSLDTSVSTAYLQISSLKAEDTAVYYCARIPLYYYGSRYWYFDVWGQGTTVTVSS .
5.7

Let us now turn to 140 (antibody, V domains shown, synthetic humanized antibody heavy chain variable region sequence; synthetic humanized antibody light chain variable region sequence) VH: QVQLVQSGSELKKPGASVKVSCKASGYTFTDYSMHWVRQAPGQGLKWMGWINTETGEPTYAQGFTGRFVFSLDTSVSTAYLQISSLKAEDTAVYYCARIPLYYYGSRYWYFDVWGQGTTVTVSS VL: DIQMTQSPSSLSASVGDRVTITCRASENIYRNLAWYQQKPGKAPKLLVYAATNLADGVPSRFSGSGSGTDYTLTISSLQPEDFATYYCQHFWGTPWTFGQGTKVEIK
5.4

Let us now turn to 82 (antibody, V domains shown, constant regions without entry; synthetic humanized antibody light chain variable region sequence; synthetic humanized antibody heavy chain variable region sequence) VL: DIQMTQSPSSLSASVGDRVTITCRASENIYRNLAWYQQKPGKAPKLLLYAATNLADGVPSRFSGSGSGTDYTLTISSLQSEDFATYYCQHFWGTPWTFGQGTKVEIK VH: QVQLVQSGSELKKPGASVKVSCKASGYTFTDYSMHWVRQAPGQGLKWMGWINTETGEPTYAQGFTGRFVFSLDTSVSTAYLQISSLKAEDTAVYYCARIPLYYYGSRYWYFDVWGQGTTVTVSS
5.6

Let us now turn to 88 (antibody, V domains shown, constant regions without entry; synthetic humanized antibody light chain variable region sequence; synthetic humanized antibody heavy chain variable region sequence) VL: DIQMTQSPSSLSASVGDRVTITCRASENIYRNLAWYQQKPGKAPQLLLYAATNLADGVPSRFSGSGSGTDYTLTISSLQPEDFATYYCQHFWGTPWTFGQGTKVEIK VH: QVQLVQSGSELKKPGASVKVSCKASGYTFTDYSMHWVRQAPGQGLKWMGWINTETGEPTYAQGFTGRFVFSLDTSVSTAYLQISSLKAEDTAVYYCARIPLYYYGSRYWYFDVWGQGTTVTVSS
6.3
